# test-protocol: Solubility in water determined visually or by UV-spectrometry
# experimental-parameters: 40° C. overnight, M = Li
Structures can show the parent of a compound that is named as a salt.
reported-metric: Solubility in water at 40° C.

Some solved entries appear below for comparison.
[[record]]
compound = "C=Cc1ccc(S(=O)(=O)NS(=O)(=O)c2ccccc2)cc1 [MM-P, lithium salt]"
reported_metric = "Solubility in water at 40° C."
endpoint_result = ">60 wt %"

[[record]]
compound = "C=Cc1ccc(S(=O)(=O)NS(=O)(=O)C(F)(F)F)cc1 [MM-Tf, lithium salt, reference compound]"
reported_metric = "Solubility in water at 40° C."
endpoint_result = ">60 wt %"

[[record]]
compound = "C=Cc1ccc(S(=O)(=O)NS(C)(=O)=O)cc1 [MM-M, lithium salt]"
reported_metric = "Solubility in water at 40° C."
endpoint_result = ">60 wt %"

[[record]]
compound = "C=Cc1ccc(S(=O)(=O)NS(N)(=O)=O)cc1 [MM-A, lithium salt]"
reported_metric = "Solubility in water at 40° C."
endpoint_result = ">60 wt %"


Consider the record given below.
INPUT: I have this compound here, C=Cc1ccc(S(=O)(=O)[O-])cc1.[Li+] [LiSS, Styrene sulphonate, lithium salt, reference compound] , and I need its recorded Solubility in water at 40° C..
OUTPUT: 40 wt %

meta.source: patent US12534583B2
